experiment: Transport of morroniside across Caco-2 cell monolayers (bidirectional, concentration and pH); assay type: in vitro ADME, human; conditions: human, Caco-2, pH 7.4, 5 μM morroniside; AP to BL; over 3 h; read-out: Papp (AP to BL)
property: Papp A→B at 180 min, 5 μM
Form entry: enter the amount, then its unit.

Consider COC(=O)C1=CO[C@@H](O[C@@H]2O[C@H](CO)[C@@H](O)[C@H](O)[C@H]2O)[C@@H]2[C@H](C)O[C@@H](O)C[C@H]12 [morroniside, Morroniside] . Its measured Papp A→B at 180 min, 5 μM is 2.66 ×10⁻⁶ cm/s
